Study Target: Glycine receptor subunit alpha-1 (Homo sapiens, UniProt P23415)
Assay Protocol: Displacement of [3H]strychnine from human glycine receptor subunit alpha-1 expressed in HEK293 cell membranes
Reported Endpoint: pKi
To interpret pKi, take it as minus log10 of a concentration measured in moles per litre.

Illustrative cases are given below, each with its answer.
>  <Chemical String>
CCC(=O)N[C@@H]1C(=O)N2c3ccccc3[C@@]34CCN5CC6=CCO[C@@H]1[C@@H]([C@H]23)[C@H]6C[C@H]54

>  <Reported Endpoint>
pKi

>  <Test Result>
7.04

$$$$
>  <Chemical String>
N[C@@H]1C(=O)N2c3ccccc3[C@@]34CCN5CC6=CCO[C@@H]1[C@@H]([C@H]23)[C@H]6C[C@H]54

>  <Reported Endpoint>
pKi

>  <Test Result>
6.13

$$$$

Q: I would be grateful if you could share the reported pKi for `O=C1C[C@@H]2OCC=C3CN4CC[C@]56c7ccccc7N1[C@H]5[C@H]2[C@H]3C[C@H]46` .
A: 6.91

---

Catalogue of molecules with associated pIC50
Study Target: Glycine receptor subunit alpha-1 (Homo sapiens, UniProt P23415)
Sequence (P23415 whole entry): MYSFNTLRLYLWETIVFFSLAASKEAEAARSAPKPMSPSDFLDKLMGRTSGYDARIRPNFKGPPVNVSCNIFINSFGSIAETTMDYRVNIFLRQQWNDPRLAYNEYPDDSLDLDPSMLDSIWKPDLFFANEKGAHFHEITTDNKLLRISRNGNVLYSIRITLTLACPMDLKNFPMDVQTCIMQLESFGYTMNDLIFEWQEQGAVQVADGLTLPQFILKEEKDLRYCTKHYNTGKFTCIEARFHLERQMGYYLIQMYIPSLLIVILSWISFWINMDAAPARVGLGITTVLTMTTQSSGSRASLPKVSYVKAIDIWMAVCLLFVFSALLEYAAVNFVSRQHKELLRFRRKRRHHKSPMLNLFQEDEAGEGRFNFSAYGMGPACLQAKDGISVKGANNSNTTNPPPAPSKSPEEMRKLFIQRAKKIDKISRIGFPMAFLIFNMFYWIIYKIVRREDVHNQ
Assay Protocol: Antagonist activity at human glycine receptor subunit alpha-1 expressed in human tsA201 cells assessed as reduction in glycine-induced response by fluorescence-based FLIPR membrane potential blue assay
Type: cell-based
To interpret pIC50, take it as minus log10 of a concentration measured in moles per litre.

Illustrative cases are given below, each with its answer.
>  <Chemical String>
O=C1C[C@@H]2OCC=C3CN4CC[C@]56c7ccccc7N1[C@H]5[C@H]2[C@H]3C[C@H]46

>  <Reported Endpoint>
pIC50

>  <Test Result>
6.82

$$$$
>  <Chemical String>
CCC(=O)N[C@@H]1C(=O)N2c3ccccc3[C@@]34CCN5CC6=CCO[C@@H]1[C@@H]([C@H]23)[C@H]6C[C@H]54

>  <Reported Endpoint>
pIC50

>  <Test Result>
6.15

$$$$

Q: I would be grateful if you could share the reported pIC50 for `N[C@@H]1C(=O)N2c3ccccc3[C@@]34CCN5CC6=CCO[C@@H]1[C@@H]([C@H]23)[C@H]6C[C@H]54` .
A: 6.00

---

Study Target: Glycine receptor (alpha-1/beta) (Homo sapiens, UniProt P23415+P48167)
Assay Protocol: Antagonist activity at human glycine receptor subunit alpha-1beta expressed in human tsA201 cells assessed as reduction in glycine-induced response by fluorescence-based FLIPR membrane potential blue assay
Format: cell-based
Catalogue of compounds with associated pIC50
To interpret pIC50, take it as minus log10 of a concentration measured in moles per litre.

Q: I would be grateful if you could share the reported pIC50 for `CCC(=O)N[C@@H]1C(=O)N2c3ccccc3[C@@]34CCN5CC6=CCO[C@@H]1[C@@H]([C@H]23)[C@H]6C[C@H]54` .
A: 5.66

Q: I would be grateful if you could share the reported pIC50 for `N[C@@H]1C(=O)N2c3ccccc3[C@@]34CCN5CC6=CCO[C@@H]1[C@@H]([C@H]23)[C@H]6C[C@H]54` .
A: 5.11

Q: I would be grateful if you could share the reported pIC50 for `O=C1C[C@@H]2OCC=C3CN4CC[C@]56c7ccccc7N1[C@H]5[C@H]2[C@H]3C[C@H]46` .
A: 6.29
